Data credit: ChEMBL document CHEMBL2424641

measurement.protocol: Metabolic stability in P-gp-knockout rat brain assessed as unmetabolized drug level at 330 MBq after 30 min by HPLC chromatogram analysis
Type: ADME, tissue-based
recorded.conditions: read-out: Stability
result.type: remaining at 0.5 h
Remember to quote the unit after the number.

q: Hello, please tell me recorded remaining at 0.5 h for this one: Cc1ncc(OC[C@@]2(c3cccc(F)c3)C[C@H]2C(=O)Nc2ccc(F)cn2)c(CO[11CH3])n1
a: 54%

====

result.type: Ki
Remember to quote the unit after the number.

q: Return reported Ki for target or system Orexin/Hypocretin receptor type 1 (Homo sapiens, UniProt O43613), item COCc1nc(C)ncc1OC[C@@]1(c2cccc(F)c2)C[C@H]1C(=O)Nc1ccc(F)cn1 .
a: 0.001 µM

q: Return reported Ki for target or system Orexin/Hypocretin receptor type 1 (Homo sapiens, UniProt O43613), item COc1cc(NC(=O)[C@@H]2C[C@@]2(COc2cnc(C)nc2C)c2cccc(F)c2)ncc1F .
a: 0.003 µM

q: Return reported Ki for target or system Orexin/Hypocretin receptor type 1 (Homo sapiens, UniProt O43613), item COc1ccc([C@]2(COc3cnc(C)nc3C)C[C@H]2C(=O)Nc2ccc(F)cn2)cc1F .
a: 0.03 µM

q: Return reported Ki for target or system Orexin/Hypocretin receptor type 1 (Homo sapiens, UniProt O43613), item Cc1ncc(OC[C@@]2(c3cccc(F)c3)C[C@H]2C(=O)Nc2ccc(C#N)cn2)c(C)n1 .
a: 0.032 µM

q: Return reported Ki for target or system Orexin/Hypocretin receptor type 1 (Homo sapiens, UniProt O43613), item COc1nc(NC(=O)[C@@H]2C[C@@]2(COc2cnc(C)nc2C)c2cccc(F)c2)ccc1F .
a: 0.012 µM
